- Test system: NCI-H23
- ASSAY_PROCEDURE: NCI-60 five-dose assay (non-small cell lung cancer)
- Type: cell-based, human
- CONDITION_SUMMARY: Homo sapiens, 48 h, SRB, read-out: LC50 (the source's name)
// reported CC50 per item

COMPOUND_STRING: CCOc1ccccc1NC1=C(Cl)C(=O)c2nc(C)ccc2C1=O
CC50: 8.71 µM
--
COMPOUND_STRING: COc1ccccc1NC1=C(Cl)C(=O)c2nc(C)ccc2C1=O
CC50: 7.45 µM
--
COMPOUND_STRING: COc1cc(NC2=C(Cl)C(=O)c3nc(C)ccc3C2=O)cc(OC)c1
CC50: 6.49 µM
--
COMPOUND_STRING: CCOc1ccc(NC2=C(Cl)C(=O)c3nc(C)ccc3C2=O)cc1
CC50: 6.03 µM

----------
- Test system: SNB-19
// reported GI50 per item
PROPERTY: GI50 (nM)

COMPOUND: COc1ccccc1NC1=C(Cl)C(=O)c2nc(C)ccc2C1=O [AQQ1]
RESULT_UNITS: nM
VALUE_OBSERVED: 1810
--
COMPOUND: COc1cc(NC2=C(Cl)C(=O)c3nc(C)ccc3C2=O)cc(OC)c1 [AQQ5]
RESULT_UNITS: nM
VALUE_OBSERVED: 5820
--
COMPOUND: CCOc1ccc(NC2=C(Cl)C(=O)c3nc(C)ccc3C2=O)cc1 [AQQ3]
RESULT_UNITS: nM
VALUE_OBSERVED: 1680
--
COMPOUND: CCOc1ccccc1NC1=C(Cl)C(=O)c2nc(C)ccc2C1=O [AQQ2]
RESULT_UNITS: nM
VALUE_OBSERVED: 1800

----------
- Test system: LOX IMVI
- ASSAY_PROCEDURE: NCI-60 five-dose assay (melanoma)
- Format: cell-based, human
- CONDITION_SUMMARY: 48 h, SRB

COMPOUND_STRING: CCOc1ccc(NC2=C(Cl)C(=O)c3nc(C)ccc3C2=O)cc1
TGI, nM: 2330
--
COMPOUND_STRING: COc1ccccc1NC1=C(Cl)C(=O)c2nc(C)ccc2C1=O
TGI, nM: 2360
--
COMPOUND_STRING: COc1cc(NC2=C(Cl)C(=O)c3nc(C)ccc3C2=O)cc(OC)c1
TGI, nM: 2320
--
COMPOUND_STRING: CCOc1ccccc1NC1=C(Cl)C(=O)c2nc(C)ccc2C1=O
TGI, nM: 2220

----------
- Test system: HOP-62
// reported GI50 per item

COMPOUND: CCOc1ccc(NC2=C(Cl)C(=O)c3nc(C)ccc3C2=O)cc1 [AQQ3]
TESTED_ON: HOP-62
GI50: 1.74 µM

COMPOUND: CCOc1ccccc1NC1=C(Cl)C(=O)c2nc(C)ccc2C1=O [AQQ2]
TESTED_ON: HOP-62
GI50: 2.27 µM

COMPOUND: COc1cc(NC2=C(Cl)C(=O)c3nc(C)ccc3C2=O)cc(OC)c1 [AQQ5]
TESTED_ON: HOP-62
GI50: 4.26 µM

COMPOUND: COc1ccccc1NC1=C(Cl)C(=O)c2nc(C)ccc2C1=O [AQQ1]
TESTED_ON: HOP-62
GI50: 2.41 µM

----------
// reported LC50 (concentration killing 50% of cells) per item
- System: HOP-62
- ASSAY_PROCEDURE: NCI-60 five-dose assay (non-small cell lung cancer)
- Format: cell-based, human
- CONDITION_SUMMARY: Homo sapiens, 48 h, SRB
PROPERTY: LC50 (concentration killing 50% of cells)

COMPOUND_STRING: CCOc1ccccc1NC1=C(Cl)C(=O)c2nc(C)ccc2C1=O
VALUE_OBSERVED: 28.8 µM

COMPOUND_STRING: COc1ccccc1NC1=C(Cl)C(=O)c2nc(C)ccc2C1=O
VALUE_OBSERVED: 37.5 µM

COMPOUND_STRING: COc1cc(NC2=C(Cl)C(=O)c3nc(C)ccc3C2=O)cc(OC)c1
VALUE_OBSERVED: 37.7 µM

COMPOUND_STRING: CCOc1ccc(NC2=C(Cl)C(=O)c3nc(C)ccc3C2=O)cc1
VALUE_OBSERVED: 6.01 µM
